test: Ratio of drug level in brain to plasma in mouse at 10 mg/kg, po; assay type: ADME, organism-based; parameters: dose 10 mg/kg, route oral; details: read-out: BPR
Parameter Kp: see the listing below.
# output: bare number, no unit

Cc1cc(Oc2cncnc2)cc(C(=O)Nc2ccc(F)cn2)n1    5.9

Proceeding to the next molecule to report its Kp.
Fill in the blank: the reported Kp of Cc1cc(Oc2cncc(F)c2)cc(C(=O)Nc2ccc(F)cn2)n1 is ____. 4.7

###

Let's look at some compounds and their measured bioavailability.
assay: Oral bioavailability in cynomolgus monkey; format: ADME, organism-based, Macaca fascicularis; conditions: in vivo
Answer in %, number only, no unit symbol.

Cc1cc(Oc2cncc(F)c2)cc(C(=O)Nc2ccc(F)cn2)n1    25

Shifting focus to the compound that follows.
What does the data say about its bioavailability? Entry: Cc1cc(Oc2cncnc2)cc(C(=O)Nc2ccc(F)cn2)n1 42

###

test system: Mus musculus; assay: Anxiolytic activity in ip dosed Harlan CD1 mouse assessed as inhibition of marble burying activity administered 15 to 30 mins prior to test; type: functional
Recorded ED for the following compounds
Give the number; mg/kg is assumed, so skip it.

See these solved cases before continuing.
Cc1cc(Oc2cncnc2)cc(C(=O)Nc2ccc(F)cn2)n1    10
Cc1cc(Oc2cncc(F)c2)cc(C(=O)Nc2ccc(F)cn2)n1    30
Cc1cc(Oc2cnc(C)nc2)cc(C(=O)Nc2ccc(F)cn2)n1    10

ED for CCc1cccc(NC(=O)c2cc(Oc3cncnc3)cc(C)n2)n1 ? 10

###

Reported bioavailability by item:
assay: Oral bioavailability in rat; format: ADME, organism-based; settings: in vivo
Numeric answer only, unit % assumed.

A selection of reference data follows.
CCc1cccc(NC(=O)c2cc(Oc3cncnc3)cc(C)n2)n1    39
Cc1cc(Oc2cncc(F)c2)cc(C(=O)Nc2ccc(F)cn2)n1    67

Record request: bioavailability value, item Cc1cc(Oc2cncnc2)cc(C(=O)Nc2ccc(F)cn2)n1 30
